- assay-system: T1, human transferrin receptor 1 (hTfR1) (human, UniProt P02786 89-760, limits assumed)
- T1 construct: The selections used the biotinylated ECD domain of hTfR1
- T1 sequence (P02786 89-760 limits assumed): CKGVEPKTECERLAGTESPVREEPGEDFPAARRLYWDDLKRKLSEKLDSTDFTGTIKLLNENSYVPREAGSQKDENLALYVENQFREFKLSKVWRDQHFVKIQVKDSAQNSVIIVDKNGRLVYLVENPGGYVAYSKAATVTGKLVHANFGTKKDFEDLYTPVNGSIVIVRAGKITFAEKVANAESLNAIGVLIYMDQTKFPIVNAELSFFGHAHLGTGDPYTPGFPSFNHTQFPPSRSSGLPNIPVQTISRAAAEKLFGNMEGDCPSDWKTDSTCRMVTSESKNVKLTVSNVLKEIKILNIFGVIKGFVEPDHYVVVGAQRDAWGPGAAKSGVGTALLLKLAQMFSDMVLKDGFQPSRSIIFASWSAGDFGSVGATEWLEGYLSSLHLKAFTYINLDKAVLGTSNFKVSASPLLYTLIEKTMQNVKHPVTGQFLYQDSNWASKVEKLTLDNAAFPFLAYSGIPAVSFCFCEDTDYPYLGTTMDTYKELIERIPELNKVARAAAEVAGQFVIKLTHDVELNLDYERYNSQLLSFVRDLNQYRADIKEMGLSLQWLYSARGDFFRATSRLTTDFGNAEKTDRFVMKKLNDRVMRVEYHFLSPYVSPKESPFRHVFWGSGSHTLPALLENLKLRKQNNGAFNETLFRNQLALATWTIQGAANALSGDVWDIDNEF
- assay-text: competition ELISA, Fab
recorded-metric: Kd (nM)
Note: unit nM is implicit; provide only the numeric part.

Study these solved cases before continuing.
INSERT INTO results (binder, unit_tag, numeric_value) VALUES
  ('Fab0064 (Fab, V domains shown) VH: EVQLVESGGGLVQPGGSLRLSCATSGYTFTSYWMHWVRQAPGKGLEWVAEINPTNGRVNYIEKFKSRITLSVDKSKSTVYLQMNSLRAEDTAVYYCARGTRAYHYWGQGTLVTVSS VL: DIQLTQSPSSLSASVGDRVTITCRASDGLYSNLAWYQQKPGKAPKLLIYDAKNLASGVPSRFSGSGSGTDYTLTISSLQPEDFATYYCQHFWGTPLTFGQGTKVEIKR', 'nM', 0.67),
  ('Fab0069 (Fab, V domains shown) VH: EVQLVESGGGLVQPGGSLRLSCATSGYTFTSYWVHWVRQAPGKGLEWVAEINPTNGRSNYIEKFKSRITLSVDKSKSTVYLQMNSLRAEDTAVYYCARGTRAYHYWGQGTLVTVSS VL: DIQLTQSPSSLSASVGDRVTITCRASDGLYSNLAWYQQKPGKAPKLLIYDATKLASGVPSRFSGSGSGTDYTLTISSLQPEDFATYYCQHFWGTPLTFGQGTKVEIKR', 'nM', 0.75),
  ('Fab0060 (Fab, V domains shown) VH: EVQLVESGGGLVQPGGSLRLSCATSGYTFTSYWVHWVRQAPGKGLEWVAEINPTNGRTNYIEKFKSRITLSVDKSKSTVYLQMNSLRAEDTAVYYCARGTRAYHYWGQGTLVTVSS VL: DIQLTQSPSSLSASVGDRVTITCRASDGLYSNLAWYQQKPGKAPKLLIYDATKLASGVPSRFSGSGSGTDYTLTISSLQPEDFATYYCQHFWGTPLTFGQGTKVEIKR', 'nM', 0.81),
  ('Fab0068 (Fab, V domains shown) VH: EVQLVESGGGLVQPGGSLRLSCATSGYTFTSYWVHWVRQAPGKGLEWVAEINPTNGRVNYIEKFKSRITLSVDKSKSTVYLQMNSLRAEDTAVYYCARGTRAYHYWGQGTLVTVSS VL: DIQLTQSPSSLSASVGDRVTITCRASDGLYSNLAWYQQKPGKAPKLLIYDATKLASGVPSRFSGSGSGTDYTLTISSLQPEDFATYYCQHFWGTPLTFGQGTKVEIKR', 'nM', 0.84);

Let us move to another entry and its Kd.
Task: Which value of Kd has been reported for Fab0066 (Fab, V domains shown) VH: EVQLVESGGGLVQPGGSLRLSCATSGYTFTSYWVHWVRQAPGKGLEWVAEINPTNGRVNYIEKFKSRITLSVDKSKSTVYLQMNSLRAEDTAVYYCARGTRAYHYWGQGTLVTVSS VL: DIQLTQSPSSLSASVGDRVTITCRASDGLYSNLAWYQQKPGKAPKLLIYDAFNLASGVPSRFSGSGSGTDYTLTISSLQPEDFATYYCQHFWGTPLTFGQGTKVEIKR in the records?
Output: 0.91
